target: recombinant human kappa opioid receptor (κ) (Homo sapiens (Human), UniProt P41145); experiment: κ-opioid receptor radioligand binding assay ([3H]-U69,593); details: binding affinity
metric.name: Ki (nM)

>>> test_value("O=C(NCc1ccccc1)[C@H]1C[C@]23CCN(CC4CC4)[C@H](Cc4ccc(O)cc42)[C@]3(O)C1 [Compound 34]")
0.083
>>> test_value("O=C(NCCN1CCOCC1)[C@H]1C[C@]23CCN(CC4CC4)[C@H](Cc4ccc(O)cc42)[C@]3(O)C1 [Compound 93]")
0.64
>>> test_value("COC(=O)[C@@H]1C[C@]23CCN(CC4CC4)[C@H](Cc4ccc(O)cc42)[C@]3(O)C1 [Compound 12]")
0.3
>>> test_value("Cc1ccc(CNC(=O)[C@H]2C[C@]34CCN(CC5CC5)[C@H](Cc5ccc(O)cc53)[C@]4(O)C2)cc1 [Compound 38]")
0.16

Measured values drawn from patent US9656962B2 for this set.
